Tested on: CAKI-1 renal
Experiment: NCI tumour cell line growth inhibition, 48 h; in the data active = GI50 below about 0.43 µM; inactive = the rest
Outcomes: y for active, n for inactive

* O=C1c2cc(F)ccc2-c2c1c1ccc([N+](=O)[O-])cc1c(=O)n2CCCBr | n
* COc1cc(/C=C/C(=O)c2c(-c3ccc(F)cc3)nc3sc(C)nn23)cc(OC)c1OC | n
* C=CCOC(=O)Nc1cccn([C@H](CC(C)C)C(=O)NCCC(C)C)c1=O | n
* Cc1cccc(Cl)c1NC(=O)c1cnc(Nc2cc(N3CCOCC3)cc(S(C)(=O)=O)c2)s1 | y
* CCCN(CCC)c1ccc(C=O)c(C)c1 | n

====

Quick reference: TGI of the listed items.
Tested on: SF-268 CNS
Experiment: NCI tumour cell line growth inhibition, 48 h
Measurement name: TGI

* O=c1[nH]c2cc([N+](=O)[O-])c(N/N=C/c3ccc(Cl)cc3Cl)c([N+](=O)[O-])c2[nH]1 | > 100 µM
* COc1ccc(N=Nc2c(N)nn(C)c2N)cc1 | > 100 µM
* O=C(O)c1c2c(cc3c(=O)cc(-c4ccccc4)oc13)CCCC2 | > 100 µM
* COc1ccc2c(c1)CCCc1c-2nc2ccccc2c1N | 29.2 µM
* O=c1[nH]nc(Cc2ccccc2)n1/N=C/c1ccc([N+](=O)[O-])cc1 | > 100 µM
* O=C(NC(Cc1ccc(Cl)cc1)C(=O)O)c1ccc(I)cc1 (stereo unspecified) | > 100 µM
* O=C1C=C(c2ccccc2)O/C1=C\C(=O)c1ccc(Cl)cc1 | 52.2 µM
* CCC1CCC2c3c([nH]c4ccc(C)cc34)C3C(=O)N(N(C)C)C(=O)C3C2C1 (stereo unspecified) | > 59.8 µM
* O=c1cccc2n1CC1CNC[C@H]2C1 | > 100 µM
* O=C(CSSCC(=O)Nc1ccc(Br)cc1)Nc1ccc(Br)cc1 | 26.6 µM
* Cc1cc(C)nc(NS(=O)(=O)c2ccc(NC(=O)NC(F)(F)F)cc2)n1 | > 100 µM
* CCOC(=O)c1sc2nc1CSc1sc(=S)sc1SCc1nc(sc1C(=O)OCC)-c1nc(c(C(=O)OCC)s1)CSc1sc(=S)sc1SCc1nc-2sc1C(=O)OCC | > 10 µM
* NC(=O)Cn1c(=O)oc2cc(C(=O)CN3CCOCC3)ccc21 | > 100 µM
* COc1cc(/C=C/C(=O)c2c(-c3ccc(F)cc3)nc3sc(C)nn23)cc(OC)c1OC | 8.96 µM
* CC1(C)CCC(C)(C)c2cc(NC(=O)c3ccc(C(=O)O)cc3)ccc21 | > 100 µM
* COc1cc2c(c(OC)c1OC)-c1c(c3ccc([N+](=O)[O-])cc3c(=O)n1CCCN)C2=O | 34.6 µM
* COC(=O)/N=[N+](\[O-])C(c1ccccc1)c1ccccc1 | > 100 µM
* Cc1ccc(-c2nnc3s/c(=C\c4ccc(N(C)C)cc4)c(=O)n23)cc1 | > 100 µM
* Cn1cc(-c2nnc(-c3ccc(Cl)cc3)[nH]c2=O)c2ccccc21 | > 100 µM
* O=[N+]([O-])c1oc2ccc3ccccc3c2c1CCO | 40.5 µM
* COc1cccc(NC(=O)CC(=O)NN2C(=O)/C(=C/c3ccc(N(CCC#N)CCC#N)cc3)N=C2c2cc([N+](=O)[O-])ccc2Cl)c1 | > 100 µM
